Reported Baf3-hPRLR proliferation IC50 values for a set of binders
system.tested: T1, human PRLR on cells (human, UniProt P16471 25-622)
T1 sequence: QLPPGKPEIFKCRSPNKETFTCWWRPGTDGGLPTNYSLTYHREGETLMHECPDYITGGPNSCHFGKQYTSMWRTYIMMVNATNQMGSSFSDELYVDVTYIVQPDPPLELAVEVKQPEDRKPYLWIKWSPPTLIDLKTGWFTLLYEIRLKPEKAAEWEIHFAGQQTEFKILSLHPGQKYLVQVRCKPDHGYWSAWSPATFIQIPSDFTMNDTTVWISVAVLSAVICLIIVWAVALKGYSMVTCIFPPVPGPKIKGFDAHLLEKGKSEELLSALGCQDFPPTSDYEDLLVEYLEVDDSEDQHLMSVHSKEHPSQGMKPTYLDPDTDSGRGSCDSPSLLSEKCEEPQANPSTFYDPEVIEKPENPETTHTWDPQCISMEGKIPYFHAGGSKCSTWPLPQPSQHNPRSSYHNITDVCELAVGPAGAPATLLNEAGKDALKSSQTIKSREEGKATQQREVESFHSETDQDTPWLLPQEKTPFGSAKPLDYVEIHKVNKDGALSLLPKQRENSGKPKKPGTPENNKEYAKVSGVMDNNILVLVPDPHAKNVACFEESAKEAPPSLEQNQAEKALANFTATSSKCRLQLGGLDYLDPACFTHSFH
experiment.summary: cell-based or functional assay

Known results for binders:
// query Name the recorded Baf3-hPRLR proliferation IC50 of the binder listed here: Ab18 (antibody, human IgG1, kappa, V domains shown, humanized from Ab6; G1; also called Ab1 HC.1a and Ab1 LC.1) VH: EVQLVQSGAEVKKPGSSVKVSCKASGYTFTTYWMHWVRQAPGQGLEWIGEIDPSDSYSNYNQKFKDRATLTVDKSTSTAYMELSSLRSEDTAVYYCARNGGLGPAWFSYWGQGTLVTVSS VL: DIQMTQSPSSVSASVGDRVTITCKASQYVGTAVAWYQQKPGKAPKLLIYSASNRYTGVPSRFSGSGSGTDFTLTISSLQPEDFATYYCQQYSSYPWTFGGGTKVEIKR
// result 0.15 µg/mL

// query Name the recorded Baf3-hPRLR proliferation IC50 of the binder listed here: chAb8 (antibody, human IgG1, kappa, V domains shown, chimeric, murine variable and human G1/kappa constant regions) VH: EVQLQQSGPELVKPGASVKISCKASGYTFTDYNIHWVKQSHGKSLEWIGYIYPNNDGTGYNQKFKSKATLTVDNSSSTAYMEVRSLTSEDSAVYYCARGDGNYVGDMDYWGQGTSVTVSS VL: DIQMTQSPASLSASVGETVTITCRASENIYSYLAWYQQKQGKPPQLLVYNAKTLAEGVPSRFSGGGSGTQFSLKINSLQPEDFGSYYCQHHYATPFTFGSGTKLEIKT
// result 0.3 µg/mL

Next:
// query Name the recorded Baf3-hPRLR proliferation IC50 of the binder listed here: Ab24 (antibody, human IgG1, kappa, V domains shown) VH: EVQLVQSGAEVKKPGSSVKVSCKASGGTFTTYWMHWVRQAPGQGLEWIGEIDPSDSYSNYAQKFQGRVTITVDKSTSTAYMELSSLRSEDTAVYYCARNGGLGPAWFSYWGQGTLVTVSS VL: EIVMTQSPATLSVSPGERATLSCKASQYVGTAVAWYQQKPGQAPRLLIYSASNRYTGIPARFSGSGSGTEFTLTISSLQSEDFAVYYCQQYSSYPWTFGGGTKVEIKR
// result > 30 µg/mL
